// provenance: BindingDB's records for doi:10.1021/jm0492958

system_tested: Transient receptor potential cation channel subfamily V member 1 (Rattus norvegicus, UniProt O35433)
Sequence (O35433 whole entry): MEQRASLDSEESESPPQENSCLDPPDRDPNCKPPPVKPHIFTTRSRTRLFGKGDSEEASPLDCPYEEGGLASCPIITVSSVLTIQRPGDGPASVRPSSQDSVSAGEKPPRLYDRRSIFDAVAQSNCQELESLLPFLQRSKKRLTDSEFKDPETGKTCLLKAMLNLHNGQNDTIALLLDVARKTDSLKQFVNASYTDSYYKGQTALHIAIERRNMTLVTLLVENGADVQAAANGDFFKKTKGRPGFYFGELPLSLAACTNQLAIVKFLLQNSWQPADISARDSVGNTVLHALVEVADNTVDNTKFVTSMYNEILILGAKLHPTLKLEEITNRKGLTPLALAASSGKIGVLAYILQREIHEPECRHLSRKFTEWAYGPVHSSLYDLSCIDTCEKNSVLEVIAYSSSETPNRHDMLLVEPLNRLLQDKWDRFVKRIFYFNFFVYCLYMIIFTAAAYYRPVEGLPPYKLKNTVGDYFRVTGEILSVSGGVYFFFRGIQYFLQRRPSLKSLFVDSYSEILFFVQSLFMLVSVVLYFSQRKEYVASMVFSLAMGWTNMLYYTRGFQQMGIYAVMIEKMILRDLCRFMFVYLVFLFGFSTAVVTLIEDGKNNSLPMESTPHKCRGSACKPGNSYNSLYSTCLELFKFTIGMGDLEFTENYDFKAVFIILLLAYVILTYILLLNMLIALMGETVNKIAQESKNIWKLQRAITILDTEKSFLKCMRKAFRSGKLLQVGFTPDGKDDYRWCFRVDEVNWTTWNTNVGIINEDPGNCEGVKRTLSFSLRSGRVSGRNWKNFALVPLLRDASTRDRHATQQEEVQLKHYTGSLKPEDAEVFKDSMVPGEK
protocol_summary: Ca2+ Influx Functional Assay for the Determination of in Vitro Activity.
recorded_conditions: pH 7.4; 22 °C
quantity_name: pEC50
pEC50 is a log-scale quantity: -log10 of the concentration expressed in molar.

Record summary for "O=C(NCc1ccc(C(F)(F)F)cc1)Nc1cccc2cnccc12" : reported pEC50 = 7.62
